// data source = patent US10011607B2

Target: human mGlu4 receptor (Homo sapiens (Human))
Test: Ca2+ mobilization in vitro assay on recombinant human mGlu4 expressed in HEK293 cells (PAM)
Type: cell-based
Details: HEK293 cells, human mGlu4, in presence of EC20 of L-AP4; read-out: EC50 (nM) mGlu4PAM
Test readout: EC50 (nM)
# output: bare number, implied unit nM

Exercise: Any idea what EC50 was measured for C[C@@]12CC(=O)N(c3c(F)cc(C#Cc4ccccc4)cc3F)C(=O)N1CCN(c1ccnc(Cl)c1)C2=O [Example 19] ?
Key: 69

Exercise: Any idea what EC50 was measured for CC12CC(=O)N(c3c(F)cc(C#Cc4ccccc4)cc3F)C(=O)N1CCN(c1ccccn1)C2=O (racemic) [Example 4] ?
Key: 119

Exercise: Any idea what EC50 was measured for C[C@@]12CC(=O)N(c3c(F)cc(C#Cc4ccccc4)cc3F)C(=O)N1CCN(CCn1ccnc1)C2=O [Example 98] ?
Key: 283

====

Exercise: for every item that follows, state its recorded EC50.
Biological target: human mGlu4 receptor (Homo sapiens (Human), UniProt Q14833)
Sequence (Q14833 33-912): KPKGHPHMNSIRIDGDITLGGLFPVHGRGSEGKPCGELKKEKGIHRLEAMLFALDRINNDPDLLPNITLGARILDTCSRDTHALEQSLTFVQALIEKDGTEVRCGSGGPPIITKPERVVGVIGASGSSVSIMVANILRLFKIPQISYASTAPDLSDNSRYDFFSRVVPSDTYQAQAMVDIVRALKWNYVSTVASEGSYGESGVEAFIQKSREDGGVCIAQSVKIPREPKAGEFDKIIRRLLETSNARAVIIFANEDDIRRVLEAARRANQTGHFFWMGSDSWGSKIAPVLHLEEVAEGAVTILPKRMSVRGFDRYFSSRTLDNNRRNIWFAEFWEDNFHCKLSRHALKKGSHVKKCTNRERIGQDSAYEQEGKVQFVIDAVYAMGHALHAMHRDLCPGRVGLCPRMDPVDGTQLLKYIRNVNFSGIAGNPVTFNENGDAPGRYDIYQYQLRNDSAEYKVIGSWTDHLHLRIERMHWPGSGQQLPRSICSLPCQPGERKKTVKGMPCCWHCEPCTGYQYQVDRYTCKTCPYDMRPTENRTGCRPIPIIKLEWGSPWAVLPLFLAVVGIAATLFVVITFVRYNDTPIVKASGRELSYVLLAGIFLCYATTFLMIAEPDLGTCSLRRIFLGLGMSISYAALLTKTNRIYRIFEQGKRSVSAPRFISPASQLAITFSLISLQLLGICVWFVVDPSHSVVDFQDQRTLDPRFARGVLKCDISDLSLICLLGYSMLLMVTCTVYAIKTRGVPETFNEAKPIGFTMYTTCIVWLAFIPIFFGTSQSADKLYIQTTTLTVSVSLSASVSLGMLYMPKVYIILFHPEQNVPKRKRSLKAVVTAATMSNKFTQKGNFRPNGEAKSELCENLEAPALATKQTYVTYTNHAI
Assay: Ca2+ mobilization in vitro assay on recombinant human mGlu4 expressed in HEK293 cells (PAM)
Format: cell-based
Conditions: HEK293 cells, human mGlu4, in presence of EC20 of L-AP4; read-out: EC50 (nM) mGlu4PAM
# output: bare number, implied unit nM

Exercise: Any idea what EC50 was measured for Cc1ccc(N2CCN3C(=O)N(c4c(F)cc(C#Cc5ccccc5)cc4F)C(=O)CC3(C)C2=O)cn1 (racemic) ?
Key: 298

Exercise: Any idea what EC50 was measured for CC(C)n1cc(N2CCN3C(=O)N(c4c(F)cc(C#Cc5ccccc5)cc4F)C(=O)C[C@@]3(C)C2=O)cn1 ?
Key: 139

Exercise: Any idea what EC50 was measured for Cc1ccc(CN2CCN3C(=O)N(c4c(F)cc(C#Cc5ccccc5)cc4F)C(=O)CC3(C)C2=O)cc1 (racemic) ?
Key: 117

Exercise: Any idea what EC50 was measured for O=C1C2CC(=O)N(c3c(F)cc(C#Cc4ccccc4)cc3F)C(=O)N2CCN1c1ccccn1 (racemic) ?
Key: 235

Exercise: Any idea what EC50 was measured for Cc1cncc(N2CCN3C(=O)N(c4c(F)cc(C#Cc5ccccc5)cc4F)C(=O)C[C@@]3(C)C2=O)c1 ?
Key: 152

Exercise: Any idea what EC50 was measured for CC12CC(=O)N(c3c(F)cc(C#Cc4ccccc4)cc3F)C(=O)N1CCN(c1cccnn1)C2=O (racemic) ?
Key: 132

Exercise: Any idea what EC50 was measured for Cn1cc(N2CCN3C(=O)N(c4c(F)cc(C#Cc5ccccc5)cc4F)C(=O)C[C@@]3(C)C2=O)cn1 ?
Key: 90

Exercise: Any idea what EC50 was measured for CC12CC(=O)N(c3c(F)cc(C#Cc4ccccc4)cc3F)C(=O)N1CCN(c1ncc(C(F)(F)F)s1)C2=O (racemic) ?
Key: 108

Exercise: Any idea what EC50 was measured for COc1ncc(N2CCN3C(=O)N(c4c(F)cc(C#Cc5ccccc5)cc4F)C(=O)C[C@@]3(C)C2=O)cn1 ?
Key: 55

Exercise: Any idea what EC50 was measured for Cn1cc(N2CCN3C(=O)N(c4c(F)cc(C#Cc5ccccc5)cc4F)C(=O)CC3(C)C2=O)cn1 (racemic) ?
Key: 113

Exercise: Any idea what EC50 was measured for CC12CC(=O)N(c3c(F)cc(C#Cc4ccccc4)cc3F)C(=O)N1CCN(c1nccs1)C2=O (racemic) ?
Key: 113

Exercise: Any idea what EC50 was measured for CC12CC(=O)N(c3c(F)cc(C#Cc4ccccc4)cc3F)C(=O)N1CCN(c1ccncn1)C2=O (racemic) ?
Key: 36

Exercise: Any idea what EC50 was measured for COCC12CC(=O)N(c3c(F)cc(C#Cc4ccccc4)cc3F)C(=O)N1CCN(c1cnn(C)c1)C2=O (racemic) ?
Key: 273

Exercise: Any idea what EC50 was measured for Cc1cccc(C)c1CN1CCN2C(=O)N(c3c(F)cc(C#Cc4ccccc4)cc3F)C(=O)CC2(C)C1=O (racemic) ?
Key: 68
